Experiment: Protein binding in rat plasma assessed as unbound fraction
Assay type: ADME, cell-free
Quantity Kind: fraction unbound
Answers are plain numbers.

stdin: Please supply the value of reported fraction unbound for the item O=C(NCC1(O)CCCC(F)(F)C1)c1c(Cl)ccc2nc(N3CC[C@H](F)C3)ccc12 (some centres not stated)
stdout: 0.089

Here is another compound to look at.
stdin: Please supply the value of reported fraction unbound for the item O=C(NCC1CCC(F)(F)CC1)c1c(Cl)ccc2nc(N3CC[C@H](F)C3)ccc12
stdout: 0.041

====

Test: Intrinsic clearance in rat liver microsomes
Format: ADME, Microsome
Settings: read-out: CLH
Quantity Kind: microsomal CLint (µL/min/mg)
Numbers only, in µL/min/mg.

stdin: Please supply the value of reported microsomal CLint for the item O=C(NCC1CCC(F)(F)CC1)c1c(Cl)ccc2nc(N3CC[C@@H](F)C3)ccc12
stdout: 31

stdin: Please supply the value of reported microsomal CLint for the item CN(C)[C@@H]1CCN(c2ccc3c(C(=O)NCC4CCC(F)(F)CC4)c(Cl)ccc3n2)C1
stdout: 22

stdin: Please supply the value of reported microsomal CLint for the item O=C(NCC1CCC(F)(F)CC1)c1c(Cl)ccc2nc(N3CC[C@H](F)C3)ccc12
stdout: 21

Here is another compound to look at.
stdin: Please supply the value of reported microsomal CLint for the item O=C(NC[C@]1(O)CCCC(F)(F)C1)c1c(Cl)ccc2nc(N3CC[C@@H](F)C3)ccc12
stdout: 31
